# Test system: PAM212
# experimental_details: Compound was evaluated against transformed murine keratinocytes Pam 212-ras cell line
# Type: functional, cell-based, Mus musculus
quantity_kind: IC50 (µM)
Express the result in µM but write the number alone.

Query: Hello, I am looking for reported IC50 with PAM212 for `CISPLATIN` . Could you help?
Response: 72
